Tested on: THRa:RXRa (NR concentration 90 nM, RXRa partner concentration 90 nM)
measurement_description: PBM binding z-score (relative to random genomic background probes); higher = stronger binding; sequences stand for … in GC…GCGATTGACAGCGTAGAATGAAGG
param class (str): category from PBM binding z-score; see ranges low class (below 2), middle class (2 to below 3), high class (3 or more)

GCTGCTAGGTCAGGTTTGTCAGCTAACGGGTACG ... low class
AGTCAAAGTTTAGGACGAGGTAACGTAAAGCACG ... middle class
TAGCCTAGGTCGTTGGGCCAGTATAGTACGCATC ... low class

Kindly state the category for this sequence: TCTTGTCGATCAAGCAGGTTAAGAAAGCCTGAGT
low class

Kindly state the category for this sequence: CCTAGTTGGTTAGGAGGTCACACACCGGATATGA
high class

Kindly state the category for this sequence: ACTAGCAGGCCAAGTTGGGGTCACTCAAACAAAG
high class

###

Tested on: PPARg:RXRa 270nM:90nM, anti-RXR (NR concentration 270 nM, RXRa partner concentration 90 nM)
measurement_description: PBM binding z-score (relative to random genomic background probes); higher = stronger binding; sequences stand for … in GC…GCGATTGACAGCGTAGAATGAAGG
Label Yes for high-side PBM binding z-score (at or above 0.5) and No for low-side PBM binding z-score (below it).

CCTGCTGGGTCAATGGTCAGCTAAAGCAGCTCGC ... Yes
TCTTGTAGAACAGCAGGTTAAGAAAGCTGGCCAA ... Yes
AATACAGGGTCATCGTAGGACAGAGTACGCACAG ... Yes
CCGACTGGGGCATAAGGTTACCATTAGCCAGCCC ... Yes
CGTCCAAGGTCAGAGAGCTCAGTGAATGCCGAGT ... Yes
TCTTGTAGATCAGCAGGTTTAGAAAGCTGGCCAA ... Yes
TGTATTAGTTGAAGGGCAACCGACGAGTCCGTTT ... Yes
GGAACGAGGGCATGCGAGTTGATAGCATGGCGAT ... Yes
CCAACTAGGTCAAGAGGTCAAAGTCCGCTTCCCG ... Yes
ACTATTAGTTGAGACGAGGGCAACAGATAGGTTG ... No

# ---- query sequence ----
Record AGTCAAAGCTCACTAGGTAACGTAAGATTCAGCT ; criterion: PBM binding z-score no lower than 0.5. Met?
No

###

Below, each of the sequences is paired with its reported PBM binding z-score value.
Test system: LXRb:RXRa (NR concentration 270 nM, RXRa partner concentration 90 nM)
measurement_description: PBM binding z-score (relative to random genomic background probes); higher = stronger binding; sequences stand for … in GC…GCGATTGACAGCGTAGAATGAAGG
Answer with the value's number alone.

ATATGTCGGTTAAGGGTCATTCAGGTTGGTTCGC ... 4.03

Given item TCAGACAGGTGAAGGTAACACAGGTACGCAGTCG , the value recorded as its PBM binding z-score is 1.01

###

Below, each of the sequences is paired with its reported PBM binding z-score value.
System: THRa homodimer (NR concentration 90 nM)
measurement_description: PBM binding z-score (relative to random genomic background probes); higher = stronger binding; sequences stand for … in GC…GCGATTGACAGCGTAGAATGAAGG

GCGACTGGGCCAAAGCAGGTTACCATAAGGTTGG ... -0.598
GCTAGCAGGCCTTTTGGGTCACTCAATGACGGGC ... 0.611
TCGAATAGGTTACCAATGGGGCATTCAGCTTTCT ... -0.381

Given item GCATATAGTTAATACAAGGTGAAAGTCCGATTGT , the value recorded as its PBM binding z-score is 1.18

Given item ATCTCTACGTAACCAAGTTCAGTGAATGCCGAAC , the value recorded as its PBM binding z-score is 0.325

Given item CAAACTAGGTCACAGCGGTCAAAGTCCGTGCGTA , the value recorded as its PBM binding z-score is 1.74

Given item TCATATAGGTAACAGGTGAAAGTCGGTGTGGTAA , the value recorded as its PBM binding z-score is 0.292

###

Tested on: THRa homodimer (NR concentration 90 nM)
measurement_description: PBM binding z-score (relative to random genomic background probes); higher = stronger binding; sequences stand for … in GC…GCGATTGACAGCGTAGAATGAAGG
Label label 1 for high-side PBM binding z-score (at or above 0.2) and label 0 for low-side PBM binding z-score (below it).

# count of solved cases: 4
CGAAGTAGGTCAGAACAGGACAGTGAAGGATGAT ... label 0
CCGACTGGGGCATAGGTTACCATACTCAGTACGA ... label 0
TCTTGTAGATCAACAGGAGGTTGAGAAAGATCGA ... label 0
TAGCCTAGGTTATTCAGGGGCCAGTATAGAAAGC ... label 0

Record ATATGTAGGTTCTCGGGTCATTCAGTTTGCGCAT ; criterion: PBM binding z-score no lower than 0.2. Met?
label 1

Record AGAATGAGGTTACCAAGGATCAGGGAAACGCTTG ; criterion: PBM binding z-score no lower than 0.2. Met?
label 1

Record ATCTCTAGGTAAAATTCAGTGAAAGATCGATAGA ; criterion: PBM binding z-score no lower than 0.2. Met?
label 0

Record CCTATTAGTTGACCATAAGGGCAGCCGAAGCTCG ; criterion: PBM binding z-score no lower than 0.2. Met?
label 1

###

Below, each of the sequences is paired with its reported PBM binding z-score value.
System: RARb homodimer (NR concentration 270 nM)
measurement_description: PBM binding z-score (relative to random genomic background probes); higher = stronger binding; sequences stand for … in GC…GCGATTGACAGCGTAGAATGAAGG
Answer with the value's number alone.

CAAACTAGGTCAAGAGCTCAAAGTCCGCTTCCCG ... 2.98
TAGCCTAGGTCATTCTGGGGCCAGTATAGAAAGC ... 2.94
TTACCAAGGTGAAAGGTCGCTGATGCACGCCTTG ... 2.77
TCTTGTATATCAAGCAGGTTAAGAAAGCCTGAGT ... 0.552
ATCTCTAGGTAAAGTTCAGGGAAAGATCGATAGA ... 2.7

Given item TATCGGAGGACACGAAGGTCAGAGCTTTCCAGAG , the value recorded as its PBM binding z-score is 3.47

Given item CCTTTTAGTTGACCATAAGGGCAACCGAAGCTCG , the value recorded as its PBM binding z-score is 2.13

Given item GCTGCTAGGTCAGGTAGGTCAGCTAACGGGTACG , the value recorded as its PBM binding z-score is 4.09

Given item TCATATTGGTAAATGCTAGGTGAAAGTCCGATCT , the value recorded as its PBM binding z-score is 0.619

Given item CCTACTGGCCCACGAAAGGTCATTGATTCAGTGA , the value recorded as its PBM binding z-score is 4.47

###

System: PPARg:RXRa 30nM:10nM, anti-RXR (NR concentration 30 nM, RXRa partner concentration 10 nM)
measurement_description: PBM binding z-score (relative to random genomic background probes); higher = stronger binding; sequences stand for … in GC…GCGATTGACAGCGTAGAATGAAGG
Below, each of the sequences is paired with its reported PBM binding z-score value.

Given item ATACCAAGGTGATCGTGAGGTCGTTGATACTAAC , the value recorded as its PBM binding z-score is 0.0505

Given item GGAACGAGGGCATTCGAGTTGAAAGCATGGCGAT , the value recorded as its PBM binding z-score is -0.332

Given item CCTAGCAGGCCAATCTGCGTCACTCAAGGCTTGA , the value recorded as its PBM binding z-score is -1.19

Given item ATATGTGGGTTAAGGGTCATTCAGGTTGGTTCGC , the value recorded as its PBM binding z-score is 10.4

###

Below, each of the sequences is paired with its reported PBM binding z-score value.
Test system: RARg homodimer (NR concentration 270 nM)
measurement_description: PBM binding z-score (relative to random genomic background probes); higher = stronger binding; sequences stand for … in GC…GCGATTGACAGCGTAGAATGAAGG

Solved cases (10 shown):
GATACAGGGTCTGCTAGAGGCCAGAGTATGGAAA ... 0.279
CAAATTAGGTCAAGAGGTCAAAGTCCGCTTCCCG ... 7.88
GCTATTAGTTGAAAGGGCATCCGAATGATTCTCG ... 0.981
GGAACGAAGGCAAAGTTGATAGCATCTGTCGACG ... -0.151
AGTCAAAGCTCATCTAGGTAACGTAAGATATGCT ... 0.207
ATCGAAAGGTCGAGGTGAGTGTAGAGAAAGGGAA ... 4.06
CGTCCAAGGTCAGAGATGTCAGTGAATGCCGAGT ... 5.29
ACTATTAGTTGACTTAGGGCAGCCGATACGACGC ... 0.729
ATATGTAGGTTAAGGGTCGTTCAGGTTGGTTCGC ... 1.63
TCTTGTAGATCACGCAGGTTAAGAAAGCCTGAGT ... 0.0532

Given item CGTACAAGGTCATAGGAGGTCAGTGAAGACAGAT , the value recorded as its PBM binding z-score is 7.17
